# system name: T1, Recombinant human Factor IX (rhFIX) (Homo sapiens, UniProt P00740, T194A)
# T1 construct: purchased Genetics Institute
# T1 sequence (P00740 47-461 T194A): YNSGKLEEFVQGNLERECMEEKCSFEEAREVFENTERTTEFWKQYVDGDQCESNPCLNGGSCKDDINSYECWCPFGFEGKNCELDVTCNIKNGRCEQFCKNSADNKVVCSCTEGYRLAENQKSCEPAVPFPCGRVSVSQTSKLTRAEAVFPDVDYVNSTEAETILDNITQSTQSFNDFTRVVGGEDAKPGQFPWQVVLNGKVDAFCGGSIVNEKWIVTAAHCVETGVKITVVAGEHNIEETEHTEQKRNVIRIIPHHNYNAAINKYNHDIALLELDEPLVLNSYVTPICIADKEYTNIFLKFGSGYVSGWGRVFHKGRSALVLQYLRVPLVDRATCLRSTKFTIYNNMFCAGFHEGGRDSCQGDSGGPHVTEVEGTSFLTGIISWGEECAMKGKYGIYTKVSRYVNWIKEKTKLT
# method notes: BIAcore kinetics of Factor IX binding to mAb on protein A surface
# measurement conditions: rhFIX 49 nM, 5 mM Ca2+, biosensor
# Description: The kinetics of Factor IX binding to SB 249417 was assessed by BIAcore analysis with antibody bound to an immobilized protein A surface. Recombinant human Factor IX (rhFIX, Genetics Institute) at 49 nM was used and measurements performed in the presence of 5 mM Ca^2+. The interaction was characterized by rapid association, kass 2.0×10^5 M^−1 s^−1 and relatively slow off-rate, kdiss=4.1×10^−4 s^−1.
Property: kdiss; scope: individual molecules
quantity kind: kdiss (s⁻¹)

[[record]]
molecule = "SB 249413: humanized anti-Factor IX mAb, heavy chain F9HZHC 1-0 (SEQ ID NO: 31), light chain F9HZLC 1-0 (SEQ ID NO: 44) (antibody, V domains shown) VH: QVQLVQSGSELKKPGASVKVSCKASGYTFTNYGMNWVRQAPGQGLEWMGWINTRNGKSTYVDDFKGRFVFSLDTSVSTAYLQISSLKADDTAVYYCAREGNMDGYFPFTYWGQGTLVTVSS VL: EIVLTQSPATLSLSPGERATLSCRASSSVNYMHWYQQRPGQAPRLLIYATSNLASGIPARFSGSGSGTDFTLTISSLEPEDFAVYYCQQWSINPRTFGGGTKVEIKR"
measurement_units = "s⁻¹"
measurement = 0.0028

[[record]]
molecule = "SB 257732: humanized anti-Factor IX mAb, heavy chain F9HZHC 3-0 (SEQ ID NO: 89), light chain F9HZLC 3-0 (SEQ ID NO: 99) (antibody, V domains shown) VH: MGWSCIILFLVATATGVHSQIQLVQSGSELKKPGASVKVSCKASGYTFTNYGMNWVRQAPGQGLEWMGWINTRNGKSTYVDDFKGRFVFSLDTSVSTAYLQISSLKAEDTAVYFCTREGNMDGYFPFTYWGQGTLVTVSS VL: MGWSCIILFLVATATGVHSQIVLTQSPSSLSASVGDRVTITCRASSSVNYMHWYQQKPGKAPKPWIYATSNLASGVPSRFSGSGSGTDYTLTISSLQPEDFATYYCQQWSINPRTFGGGTKLEIKRTVV"
measurement_units = "s⁻¹"
measurement = 0.0012

